Origin of the recorded values: PubChem BioAssay (NCI)

test system: LOX IMVI melanoma; test: NCI-60 one-dose screen, 48 h; conditions: 10 µM unless noted
Compounds without any hit were thinned out: in the full panel of roughly 83,000, 20% have a hit. Calls of active or inactive are those of the source. Rule for the calls: active = growth percent below 10; inactive = the rest.
Just give me one of these, please: active, inactive

Reference set, count: 8
{"compound": "COc1cc(C2=NN(c3ccc(S(N)(=O)=O)cc3)C(c3ccc(Cl)cc3)C2)cc(OC)c1OC (configuration not stated)", "targetSystem": "LOX IMVI melanoma", "classLabel": "inactive"}
{"compound": "CC1SC(c2ccc(Cl)cc2)N(CCc2cccs2)C1=O (configuration not stated)", "targetSystem": "LOX IMVI melanoma", "classLabel": "active"}
{"compound": "COc1cc(/C=C2\\C(=O)N(c3c(Cl)cccc3Cl)c3ccccc32)cc(OC)c1O", "targetSystem": "LOX IMVI melanoma", "classLabel": "active"}
{"compound": "O=c1c2cc(F)ccc2oc2c(NCCNCCO)nc3ccccc3c12", "targetSystem": "LOX IMVI melanoma", "classLabel": "inactive"}
{"compound": "CN1CCN(C)c2cncc(Br)c2C1=O", "targetSystem": "LOX IMVI melanoma", "classLabel": "inactive"}
{"compound": "Cc1nc2ccc(Cl)cc2n1C", "targetSystem": "LOX IMVI melanoma", "classLabel": "inactive"}
{"compound": "C[C@H]1C(=O)C23CCC1C[C@@]21O[C@@H]2C(C)(C)C=CC(=O)C23COC1=O", "targetSystem": "LOX IMVI melanoma", "classLabel": "inactive"}
{"compound": "CC(C)(C)[Si](C)(C)OC1[C@@H](COC(N)=O)O[C@@H](n2cnc3c(N)ncnc32)[C@H]1O[Si](C)(C)C(C)(C)C (some centres not stated)", "targetSystem": "LOX IMVI melanoma", "classLabel": "inactive"}

Hi team, can someone confirm the assay call for `COc1nc2c(cc1S(=O)(=O)c1ccccc1)CCc1c-2cnn1-c1cccc(Cl)c1` ?
inactive

Assay outcome for `O=C1c2[nH]cc(CN[C@@H]3CCCN3)c2C(=O)c2c1c(O)c1ccccc1c2O` : what was it?
active

Recorded call for `COc1cc(-c2ccc3cc(OC)c(OC)c(OC)c3c2)cc(OC)c1OC` ?
inactive

Outcome? `Cn1c2ccccc2c2nn(Cc3ccccc3)c(=O)nc21`
inactive

What call does the record list for `CCN1CCN(C(=S)SCC(=O)Nc2nc3ccc(OC)cc3s2)CC1` ?
inactive

Would you mind telling me which call this test gave `O=c1[nH]c(=S)[nH]c(=O)n1Cc1cccc2ccccc12` ?
inactive
